system.tested: fibrin (in vitro human plasma clot) (Homo sapiens, UniProt P02671+P02675+P02679)
Construct: about 400 μl of human plasma containing the radiolabelled substrate; from tissue; host or cells: human plasma, clotted in vitro with added thrombin and calcium chloride
Sequence (P02671 20-644 isoform P02671-2 limits assumed): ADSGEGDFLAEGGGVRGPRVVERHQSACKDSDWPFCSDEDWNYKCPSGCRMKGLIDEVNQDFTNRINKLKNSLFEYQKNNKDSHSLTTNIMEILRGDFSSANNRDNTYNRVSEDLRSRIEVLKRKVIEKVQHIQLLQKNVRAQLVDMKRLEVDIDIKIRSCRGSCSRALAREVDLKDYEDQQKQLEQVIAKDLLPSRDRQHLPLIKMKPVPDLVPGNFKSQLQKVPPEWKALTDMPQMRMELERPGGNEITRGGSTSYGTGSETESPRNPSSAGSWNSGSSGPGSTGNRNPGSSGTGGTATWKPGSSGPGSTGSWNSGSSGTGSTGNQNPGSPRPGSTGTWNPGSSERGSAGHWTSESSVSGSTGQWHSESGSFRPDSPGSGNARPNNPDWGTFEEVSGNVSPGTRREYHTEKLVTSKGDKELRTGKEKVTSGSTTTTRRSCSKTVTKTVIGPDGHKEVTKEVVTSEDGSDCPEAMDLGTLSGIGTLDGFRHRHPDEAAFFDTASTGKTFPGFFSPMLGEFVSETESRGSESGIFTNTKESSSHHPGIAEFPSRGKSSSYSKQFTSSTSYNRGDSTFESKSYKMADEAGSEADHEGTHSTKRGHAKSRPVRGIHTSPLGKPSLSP
Sequence (P02675 45-491 limits assumed): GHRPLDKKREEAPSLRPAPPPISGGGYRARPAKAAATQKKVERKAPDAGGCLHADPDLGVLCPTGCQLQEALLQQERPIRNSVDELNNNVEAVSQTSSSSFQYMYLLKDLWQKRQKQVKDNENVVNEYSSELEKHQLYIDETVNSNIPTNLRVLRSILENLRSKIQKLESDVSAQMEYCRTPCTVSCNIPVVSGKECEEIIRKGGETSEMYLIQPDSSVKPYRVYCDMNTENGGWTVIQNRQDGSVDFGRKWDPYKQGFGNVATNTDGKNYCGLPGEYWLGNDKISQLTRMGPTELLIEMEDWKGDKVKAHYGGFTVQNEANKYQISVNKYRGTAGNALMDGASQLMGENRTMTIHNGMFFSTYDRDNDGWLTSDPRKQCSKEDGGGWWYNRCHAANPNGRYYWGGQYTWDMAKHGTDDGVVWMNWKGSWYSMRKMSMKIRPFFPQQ
Sequence (P02679 27-437 isoform P02679-2 limits assumed): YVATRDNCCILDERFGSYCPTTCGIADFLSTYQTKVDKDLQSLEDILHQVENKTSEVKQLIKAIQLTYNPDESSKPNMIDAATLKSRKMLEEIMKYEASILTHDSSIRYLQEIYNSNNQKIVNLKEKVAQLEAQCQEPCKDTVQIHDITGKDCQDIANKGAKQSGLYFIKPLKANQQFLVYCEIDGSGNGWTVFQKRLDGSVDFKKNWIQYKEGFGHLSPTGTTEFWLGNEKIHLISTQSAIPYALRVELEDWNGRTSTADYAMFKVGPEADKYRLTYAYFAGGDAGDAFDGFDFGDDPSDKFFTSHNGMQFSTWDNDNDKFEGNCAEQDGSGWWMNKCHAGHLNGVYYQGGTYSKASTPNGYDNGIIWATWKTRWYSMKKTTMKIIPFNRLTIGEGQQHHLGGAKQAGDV
procedure.summary: Incorporation into human plasma clots in vitro
Format: biochemical
run.parameters: human plasma clot, with thrombin, 60 minutes, ca. 20° C.
*1 amine or outer side, *2 acyl side, *3 side chain or, on linkers, in order; H or OH if unused. The star is where a group is joined. Fmoc = O=C(OCC1c2ccccc2-c2ccccc21)*; Glutaryl = O=C(CCCC(=O)[*:2])[*:1]; code Z = not defined here
Values of % retained (with thrombin) strictly less than 30% map to label 1, and values of at least 30% map to label 0.

[
  {
    "substance": "Ac-NQEAVSPYTLLKG-Pn44 (also: 99mTc complex) [^99mTc-Cmpd 12]",
    "group.label": "label 0"
  },
  {
    "substance": "Ac-NAEAVSPYTLLKG-Pn216 (also: 99mTc complex) [^99mTc-Cmpd 14]",
    "group.label": "label 1"
  },
  {
    "substance": "Z-NQEQVSPYG-Pn216 ({code Z}-NQEQVSPYG-Pn216; reading uncertain; also: 99mTc complex, printed as Z-NQEQVSPYG-Pn216) [^99mTc-Cmpd 18]",
    "group.label": "label 1"
  },
  {
    "substance": "Fmoc-NQEQVSPYTLLKG-Pn216 (also: 99mTc complex) [^99mTc-Cmpd 9]",
    "group.label": "label 0"
  },
  {
    "substance": "NQEQVSPYTLLK [^123I-Cmpd 1, reference compound]",
    "group.label": "label 1"
  },
  {
    "substance": "Ac-NQEQVSP(I2-Y)TLLKG-Pn216 [^99mTc-Cmpd 23]",
    "group.label": "label 0"
  },
  {
    "substance": "Ac-GQDPVKG-Pn216 (also: 99mTc complex) [^99mTc-Cmpd 48]",
    "group.label": "label 1"
  },
  {
    "substance": "(CF3)2(C6H3)-NQEQVSPYTLLKG-Pn216 ({(CF3)2(C6H3)}-NQEQVSPYTLLKG-Pn216; also: 99mTc complex) [^99mTc-Cmpd 10]",
    "group.label": "label 0"
  },
  {
    "substance": "Ac-NQEQVSPYTLLKG-Hynic (also: 99mTc complex) [^99mTc-Cmpd 4]",
    "group.label": "label 1"
  },
  {
    "substance": "Ac-NQEQVSP-Nal(2)-TLLKG-Pn216 [^99mTc-Cmpd 20]",
    "group.label": "label 0"
  },
  {
    "substance": "Ac-LGPGQSKVIG-Pn44 (also: 99mTc complex) [^99mTc-Cmpd 45]",
    "group.label": "label 1"
  },
  {
    "substance": "Ac-N—CH2NH2-QEQVSP(D-Y)TLL(D-K)G-Pn216 [^99mTc-Cmpd 34]",
    "group.label": "label 1"
  },
  {
    "substance": "Z-NQEQVSPYTLLKG-Pn216 ({code Z}-NQEQVSPYTLLKG-Pn216; reading uncertain; also: 99mTc complex, printed as Z-NQEQVSPYTLLKG-Pn216) [^99mTc-Cmpd 8]",
    "group.label": "label 1"
  },
  {
    "substance": "Pn216-CO(CH2)3CO-NQEQVSPYTLLKG-NH2 ({Pn216-Glutaryl}-NQEQVSPYTLLKG-NH2; also: 99mTc complex) [^99mTc-Cmpd 39]",
    "group.label": "label 1"
  }
]
